# Test system: NCI-H1651
# Protocol text: relative viability (nuclei count vs DMSO), 5 days (fraction); higher = more cells survive
# Conditions used: first compound 0.5 µM
Overview of recorded relative viability for various compounds
Measured attribute: relative viability

{"Compound": "CC1(C)CCC(c2ccc(Cl)cc2)=C(CN2CCN(c3ccc(C(=O)NS(=O)(=O)c4ccc(N[C@H](CCN5CCOCC5)CSc5ccccc5)c(S(=O)(=O)C(F)(F)F)c4)cc3)CC2)C1 [Navitoclax] + Nc1ncn([C@H]2C[C@H](O)[C@@H](CO)O2)c(=O)n1 [Decitabine] (partner 2 µM)", "Measured attribute": "relative viability", "Experimental result": 0.644}
{"Compound": "CC1(C)CCC(c2ccc(Cl)cc2)=C(CN2CCN(c3ccc(C(=O)NS(=O)(=O)c4ccc(N[C@H](CCN5CCOCC5)CSc5ccccc5)c(S(=O)(=O)C(F)(F)F)c4)cc3)CC2)C1 [Navitoclax] + COc1cc2c(Oc3ccc(NC(=O)C4(C(=O)Nc5ccc(F)cc5)CC4)cc3F)ccnc2cc1OCCCN1CCOCC1 [Foretinib] (partner 0.25 µM)", "Measured attribute": "relative viability", "Experimental result": 0.847}

----------
# Tested on: NCI-H1944
# Protocol text: relative viability (nuclei count vs DMSO), 5 days (fraction); higher = more cells survive
# Conditions used: first compound 0.3162 µM
The entries below are paired with their reported relative viability.
Measured attribute: relative viability

{"Molecule": "NC(=O)Nc1cc(-c2cccc(F)c2)sc1C(=O)N[C@H]1CCCNC1 [AZD7762] + Nc1nc2[nH]cc(CCc3ccc(C(=O)N[C@@H](CCC(=O)O)C(=O)O)cc3)c2c(=O)[nH]1 [Pemetrexed] (partner 0.2 µM)", "Experimental result": 0.28}
{"Molecule": "NC(=O)Nc1cc(-c2cccc(F)c2)sc1C(=O)N[C@H]1CCCNC1 [AZD7762] + Cc1nc(NC(=O)N2CCC[C@H]2C(N)=O)sc1-c1ccnc(C(C)(C)C(F)(F)F)c1 [Alpelisib] (partner 2 µM)", "Experimental result": 1.08}
{"Molecule": "NC(=O)Nc1cc(-c2cccc(F)c2)sc1C(=O)N[C@H]1CCCNC1 [AZD7762] + C[C@@H](Oc1cc(-c2cnn(C3CCNCC3)c2)cnc1N)c1c(Cl)ccc(F)c1Cl [Crizotinib] (partner 1 µM)", "Experimental result": 1.19}
{"Molecule": "NC(=O)Nc1cc(-c2cccc(F)c2)sc1C(=O)N[C@H]1CCCNC1 [AZD7762] + O=C(c1cc(Cc2n[nH]c(=O)c3ccccc23)ccc1F)N1CCN(C(=O)C2CC2)CC1 [Olaparib] (partner 8 µM)", "Experimental result": 0.532}
{"Molecule": "NC(=O)Nc1cc(-c2cccc(F)c2)sc1C(=O)N[C@H]1CCCNC1 [AZD7762] + COc1cc2c(Oc3ccc(NC(=O)C4(C(=O)Nc5ccc(F)cc5)CC4)cc3F)ccnc2cc1OCCCN1CCOCC1 [Foretinib] (partner 0.25 µM)", "Experimental result": 1.08}

----------
# Tested on: BEN
# Protocol text: relative viability (nuclei count vs DMSO), 5 days (fraction); higher = more cells survive
# Conditions used: first compound 8 µM
Note to self: use satisfied only for relative viability readings below 0.7; a reading exactly at 0.7 still gets not satisfied.

{"Compound": "C=C1C(=O)O[C@@H](CCCCCCCC)[C@@H]1C(=O)O [C-75] + CC(=O)c1c(C)c2cnc(Nc3ccc(N4CCNCC4)cn3)nc2n(C2CCCC2)c1=O [Palbociclib] (partner 0.5 µM)", "Cat": "satisfied"}
{"Compound": "C=C1C(=O)O[C@@H](CCCCCCCC)[C@@H]1C(=O)O [C-75] + CS(=O)(=O)N1CCN(Cc2cc3nc(-c4cccc5[nH]ncc45)nc(N4CCOCC4)c3s2)CC1 [Pictilisib] (partner 1 µM)", "Cat": "satisfied"}
{"Compound": "C=C1C(=O)O[C@@H](CCCCCCCC)[C@@H]1C(=O)O [C-75] + COc1cc2c(Oc3ccc(NC(=O)C4(C(=O)Nc5ccc(F)cc5)CC4)cc3F)ccnc2cc1OCCCN1CCOCC1 [Foretinib] (partner 0.25 µM)", "Cat": "satisfied"}
{"Compound": "C=C1C(=O)O[C@@H](CCCCCCCC)[C@@H]1C(=O)O [C-75] + CC(C)C[C@H](NC(=O)[C@H](Cc1ccccc1)NC(=O)c1cnccn1)B(O)O [Bortezomib] (partner 0.002 µM)", "Cat": "satisfied"}
{"Compound": "C=C1C(=O)O[C@@H](CCCCCCCC)[C@@H]1C(=O)O [C-75] + C[C@]1(O)C[C@@H](c2nc(-c3ccc4ccc(-c5ccccc5)nc4c3)c3c(N)nccn32)C1 [Linsitinib] (partner 1 µM)", "Cat": "not satisfied"}
